- TARGET OF ASSAY: Human BCMA (human) (UniProt Q02223)
- MEASUREMENT PROTOCOL: SPR, IgG on chip, huBCMA analyte
READOUT KIND: pKd
Quick note: pKd values are minus log10 of concentrations in mol/L.

Sample records with pKd:
BINDER | pKd
A02_Rd4_6nM_C16 (antibody, V domains shown, IgG; also called P5AC16; P5A16) VH: EVQLLESGGGLVQPGGSLRLSCAASGFTFSSYAMNWVRQAPGKGLEWVSAISDFGGSTYYADSVKGRFTISRDNSKNTLYLQMNSLRAEDTAVYYCARYWPMDIWGQGTLVTVSS VL: EIVLTQSPGTLSLSPGERATLSCRASQSVSDLYLAWYQQKPGQAPRLLMYDASIRATGIPDRFSGSGSGTDFTLTISRLEPEDFAVYYCQQYQTWPLTFGQGTKVEIK | 10.05
COMBO_Rd4_0.6nM_C19 (antibody, V domains shown, IgG) VH: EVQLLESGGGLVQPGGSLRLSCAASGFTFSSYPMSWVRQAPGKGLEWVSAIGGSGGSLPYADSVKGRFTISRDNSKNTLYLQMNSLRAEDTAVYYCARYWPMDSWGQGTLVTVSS VL: EIVLTQSPGTLSLSPGERATLSCRASQSVSAVYLAWYQQKPGQAPRLLMYDASIRATGIPDRFSGSGSGTDFTLTISRLEPEDFAVYYCQQYRAWPLTFGQGTKVEIK | 10.70

Exercise: Entry COMBO_Rd4_0.6nM_C09 (antibody, V domains shown, IgG) VH: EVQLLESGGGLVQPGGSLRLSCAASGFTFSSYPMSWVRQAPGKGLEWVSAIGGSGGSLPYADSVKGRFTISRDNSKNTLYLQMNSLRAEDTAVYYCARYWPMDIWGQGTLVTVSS VL: EIVLTQSPGTLSLSPGERATLSCRASQSVSSTYLAWYQQKPGQAPRLLMYDASIRATGIPDRFSGSGSGTDFTLTISRLEPEDFAVYYCQQYQEWPLTFGQGTKVEIK : reported pKd = ?
Solution: 10.51

Entry source: patent US20190241669A1
